System tested: human HER3 endogenously expressed on human cancer cells (SK-Br-3, BT-474, MCF7) (human, UniProt P21860 20-1342)
Experiment: cell-based or functional assay
Give measured SK-Br-3 pAkt IC50 for each item. Keep answers brief.
Answers are plain numbers, in pM.

[[record]]
binder = "MOR13658 (antibody, human IgG1, lambda, V domains shown, Tested as IgG) VH: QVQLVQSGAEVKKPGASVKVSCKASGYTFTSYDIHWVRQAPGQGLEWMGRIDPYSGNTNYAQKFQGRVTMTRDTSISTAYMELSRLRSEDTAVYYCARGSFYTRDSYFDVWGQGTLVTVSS VL: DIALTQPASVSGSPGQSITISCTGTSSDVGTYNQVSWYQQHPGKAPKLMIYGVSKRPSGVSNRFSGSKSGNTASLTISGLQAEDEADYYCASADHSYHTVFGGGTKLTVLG"
observation_type = "SK-Br-3 pAkt IC50"
endpoint_result = 172

[[record]]
binder = "MOR12606 (antibody, human IgG1, kappa, V domains shown, Tested as IgG) VH: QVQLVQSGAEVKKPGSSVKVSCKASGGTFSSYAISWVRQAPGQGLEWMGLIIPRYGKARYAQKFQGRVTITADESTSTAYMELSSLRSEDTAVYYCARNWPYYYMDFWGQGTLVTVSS VL: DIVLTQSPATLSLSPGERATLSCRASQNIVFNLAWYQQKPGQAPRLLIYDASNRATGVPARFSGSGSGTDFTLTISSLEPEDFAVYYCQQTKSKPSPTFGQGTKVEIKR"
observation_type = "SK-Br-3 pAkt IC50"
endpoint_result = 8

[[record]]
binder = "MOR13655 (antibody, human IgG1, lambda, V domains shown, Tested as IgG) VH: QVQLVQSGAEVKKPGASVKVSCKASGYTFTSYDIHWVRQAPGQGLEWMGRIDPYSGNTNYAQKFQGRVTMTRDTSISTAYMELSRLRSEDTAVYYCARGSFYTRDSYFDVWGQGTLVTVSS VL: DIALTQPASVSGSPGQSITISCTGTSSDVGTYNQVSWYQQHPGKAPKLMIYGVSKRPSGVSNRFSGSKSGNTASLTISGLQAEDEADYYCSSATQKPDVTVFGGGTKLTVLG"
observation_type = "SK-Br-3 pAkt IC50"
endpoint_result = 62

[[record]]
binder = "MOR12605 (antibody, human IgG1, kappa, V domains shown, Tested as IgG) VH: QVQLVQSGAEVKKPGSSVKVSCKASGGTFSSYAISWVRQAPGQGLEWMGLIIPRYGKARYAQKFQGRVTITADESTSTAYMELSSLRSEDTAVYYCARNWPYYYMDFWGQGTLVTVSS VL: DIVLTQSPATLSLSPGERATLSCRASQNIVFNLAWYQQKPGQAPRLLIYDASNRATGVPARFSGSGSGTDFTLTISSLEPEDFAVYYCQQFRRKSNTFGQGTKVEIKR"
observation_type = "SK-Br-3 pAkt IC50"
endpoint_result = 140


Please find the next binder below.
[ask] Supply recorded SK-Br-3 pAkt IC50 for MOR13654 (antibody, human IgG1, lambda, V domains shown, Tested as IgG) VH: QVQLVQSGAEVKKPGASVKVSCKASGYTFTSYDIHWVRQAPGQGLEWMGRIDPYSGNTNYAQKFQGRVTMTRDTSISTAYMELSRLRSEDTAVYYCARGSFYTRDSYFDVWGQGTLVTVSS VL: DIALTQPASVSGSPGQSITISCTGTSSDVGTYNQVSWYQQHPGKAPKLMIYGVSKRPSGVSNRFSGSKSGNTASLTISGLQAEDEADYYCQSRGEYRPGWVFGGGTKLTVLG here.
[reply] 89
